Tested on: HT29 (Colorectal) cell line
METHOD_NOTES: Cancer cell cytotoxicity assay (Calcein AM / Cell Titer-Glo), HT29
Format: cell-based, human
COND: Colorectal; footnote 7: determined at same time as CEN08-180
Listed molecules paired with reported IC50
Report the value in nM with no unit label.

INSERT INTO measurements (molecule, test_target, value_reported) VALUES
  ('CON(C1CCC2(C)C(CCC3C2CCC2(C)C(C4=CC(=O)OC4)CCC32O)C1)C1OCC(O)C(O)C1O [CEN07-W-102 (5S), reference compound]', 'HT29 (Colorectal) cell line', 33);

Next item in the queue.
## Input Looking for the measured IC50 of CON(C1CCC2(C)C(CCC3C2CCC2(C)C(C4=CC(=O)OC4)CCC32O)C1)C1OCC(O)C(O)C1O [CEN07-W-101 (23S), reference compound] , can you help?
## Output 46

----------
Tested on: SKOV3 (Ovarian) cell line
METHOD_NOTES: Cancer cell cytotoxicity assay (Calcein AM / Cell Titer-Glo), SKOV3
Format: cell-based, human
COND: Ovarian; assay set not specified
Below, each entry is listed alongside its reported log10(IC50).
Form field - Quantity: IC50; Unit: nM; Scale: log10

Study these solved cases before continuing.
INSERT INTO results (molecule, value_reported) VALUES
  ('CON(C1CCC2(C)C(CCC3C2CCC2(C)C(C4=CC(=O)OC4)CCC32O)C1)C1OCC(N)C(O)C1O (stereo not shown) [CEN08-241]', 1.87),
  ('CON(C1CCC2(C)C(CCC3C2CCC2(C)C(C4=CC(=O)OC4)CCC32O)C1)C1OCC(O)C(O)C1O [CEN07-W-102 (5S), reference compound]', 2.49),
  ('CC1OC(=O)C=C1C1CCC2(O)C3CCC4CC(OC5OCC(O)C(O)C5O)CCC4(C)C3CCC12C (stereo not shown) [CEN08-245]', 3.51),
  ('CON(C1C=C2CCC3C(CCC4(C)C(c5ccc(=O)oc5)CCC34O)C2(C)CC1)C1OCC(O)C(O)C1O (stereo not shown) [CEN08-185]', 1.18),
  ('CON(C1CCC2(C)C(CCC3C2CCC2(C)C(C4=CC(=O)OC4)CCC32O)C1)C1OCC(N)C(O)C1O (stereo not shown) [CEN08-242]', 2.36),
  ('CC12CCC(OC3OCC(O)C(O)C3O)C=C1CCC1C2CCC2(C)C(c3ccc(=O)oc3)CCC12O (stereo not shown) [CEN08-190]', 1.45);

Please turn your attention to the following entry.
## Input Fill blank: measured log10(IC50) of the molecule CC12CCC(OC3OCC(O)C(O)C3O)C=C1CCC1C2CCC2(C)C(c3ccc(=O)oc3)CCC12O (stereo not shown) [CEN08-192] is ____.
## Output 1.86

----------
System: SKOV3 (Ovarian) cell line
METHOD_NOTES: Cancer cell cytotoxicity assay (Calcein AM / Cell Titer-Glo), SKOV3
Type: cell-based, human
COND: Ovarian; footnote 3: determined at same time as CEN07-117 and -121
The following compounds are listed with their measured pIC50 values.
// scale note: pIC50 = -log10(conc_M); give the bare number

INSERT INTO measurements (compound, value_reported) VALUES
  ('CON(C1CCC2(C)C(CCC3C2CC(O)C2(C)C(C4=CC(=O)OC4)CCC32O)C1)C1OCC(O)C(O)C1O (centres unmarked) [CEN07-121]', 6.52);

Then this compound:
## Input Value lookup for pIC50; key = CON(C1CCC2(C)C(CCC3C2CC(O)C2(C)C(C4=CC(=O)OC4)CCC32O)C1)C1OCC(O)C(O)C1O (centres unmarked) [CEN07-117]
## Output 6.26

----------
System: SKOV3 (Ovarian) cell line
METHOD_NOTES: Cancer cell cytotoxicity assay (Calcein AM / Cell Titer-Glo), SKOV3
Type: cell-based, human
COND: Ovarian; footnote 7: determined at same time as CEN08-180
PROPERTY_LABEL: IC50 (µM)
Write the number in µM without appending the unit.

INSERT INTO assay_data (molecule, test_target, value_reported) VALUES
  ('CON(C1CCC2(C)C(CCC3C2CCC2(C)C(C4=CC(=O)OC4)CCC32O)C1)C1OCC(O)C(O)C1O [CEN07-W-102 (5S), reference compound]', 'SKOV3 (Ovarian) cell line', 0.036);

# input for lookup
## Input What value of IC50 has been reported for the following molecule? CON(C1CCC2(C)C(CCC3C2CCC2(C)C(C4=CC(=O)OC4)CCC32O)C1)C1OCC(O)C(O)C1O [CEN07-W-101 (23S), reference compound]
## Output 0.051

----------
# Lookup of reported IC50 keyed by entry
Test system: H1299 (NSCLC) cell line
METHOD_NOTES: Cancer cell cytotoxicity assay (Calcein AM / Cell Titer-Glo), H1299
Type: cell-based, human
COND: NSCLC; assay set not specified

Some solved cases for reference:
INSERT INTO assay_data (compound, property_label, value_reported) VALUES
  ('CON(C1C=C2CCC3C(CCC4(C)C(c5ccc(=O)oc5)CCC34O)C2(C)CC1)C1OCC(O)C(O)C1O (stereo not drawn)', 'IC50', '5 nM'),
  ('CC12CCC(OC3OCC(O)C(O)C3O)C=C1CCC1C2CCC2(C)C(c3ccc(=O)oc3)CCC12O (stereo not drawn) [CEN08-192]', 'IC50', '11 nM');

## Input For CON(C1CCC2(C)C(CCC3C2CCC2(C)C(C4=CC(=O)OC4)CCC32O)C1)C1OCC(N)C(O)C1O (stereo not drawn) [CEN08-242] , what is its reported IC50?
## Output 159 nM

## Input Form field: reported IC50 of CON(C1C=C2CCC3C(CCC4(C)C(c5ccc(=O)oc5)CCC34O)C2(C)CC1)C1OC(CO)C(O)C(O)C1N (stereo not drawn)
## Output 20 nM

## Input Would you mind telling me what IC50 value was observed for CC1OC(=O)C=C1C1CCC2(O)C3CCC4CC(OC5OCC(O)C(O)C5O)CCC4(C)C3CCC12C (stereo not drawn) ?
## Output 3700 nM

## Input Please report the recorded IC50 for CON(C1CCC2(C)C(CCC3C2CCC2(C)C(C4=CC(=O)OC4)CCC32O)C1)C1OCC(N)C(O)C1O (stereo not drawn) [CEN08-241] .
## Output 24 nM

## Input Any idea what IC50 was measured for CC12CCC(OC3OCC(O)C(O)C3O)C=C1CCC1C2CCC2(C)C(c3ccc(=O)oc3)CCC12O (stereo not drawn) [CEN08-190] ?
## Output 4 nM

## Input Would you mind telling me what IC50 value was observed for CON(C1CCC2(C)C(CCC3C2CCC2(C)C(C4=CC(=O)OC4)CCC32O)C1)C1OCC(O)C(O)C1O [CEN07-W-101 (23S), reference compound] ?
## Output 17 nM

## Input So what does the record say about IC50 for CON(C1CCC2(C)C(CCC3C2CCC2(C)C(C4=CC(=O)OC4)CCC32O)C1)C1OCC(O)C(O)C1O [CEN07-W-102 (5S), reference compound] ?
## Output 9 nM

----------
Test system: H1299 (NSCLC) cell line
METHOD_NOTES: Cancer cell cytotoxicity assay (Calcein AM / Cell Titer-Glo), H1299
Assay type: cell-based, human
COND: NSCLC; footnote 5: determined at same time as CEN08-193
PROPERTY_LABEL: IC50 (nM)
Value expressed in nM; do not type the unit.

INSERT INTO assay_data (molecule, value_reported) VALUES
  ('CON(C1CCC2(C)C(CCC3C2CCC2(C)C(C4=CC(=O)OC4)CCC32O)C1)C1OCC(O)C(O)C1O [CEN07-W-102 (5S), reference compound]', 6);

From here, focus on the item given below.
## Input // returns reported IC50 for input CON(C1CCC2(C)C(CCC3C2CCC2(C)C(C4=CC(=O)OC4)CCC32O)C1)C1OCC(O)C(O)C1O [CEN07-W-101 (23S), reference compound]
## Output 6
